Tested on: SN12C renal
experimental-protocol: NCI tumour cell line growth inhibition, 48 h
measurement-label: TGI

Solved cases (4 shown):
[
  {
    "compound": "O=c1cc(N2CCOCC2)[nH]c(=O)n1-c1cccc(Cl)c1",
    "measurement-label": "TGI",
    "value-observed": "> 100 µM"
  },
  {
    "compound": "S=C(NCCc1ccccn1)c1nc[nH]c1C(=S)NCCc1ccccn1",
    "measurement-label": "TGI",
    "value-observed": "> 100 µM"
  },
  {
    "compound": "COc1ccc2nc3n[nH]c(N)c3nc2c1",
    "measurement-label": "TGI",
    "value-observed": "> 69.1 µM"
  },
  {
    "compound": "CSc1ccc(NC(=O)C2CCCCC2C(=O)O)cc1 (stereo unspecified)",
    "measurement-label": "TGI",
    "value-observed": "> 100 µM"
  }
]

Query: Please provide the recorded TGI for O=C(Cn1nnc(-c2ccccc2)n1)N/N=C/c1cn(Cc2ccc(Cl)cc2Cl)c2ccccc12 , tested on SN12C renal.
Result: > 100 µM
